System: bronchoconstriction provoked by acetylcholine
Assay: Bronchoconstriction provoked by intravenous acetylcholine, Konzett method
Type: in vivo
Conditions: guinea-pig, intraperitoneal injection of 100mg/kg
PARAMETER: Percentage inhibition of bronchoconstriction (%)
# value in %; strip the unit string

> print(dat)
                                   compound  measured
1  Cc1cc(Nc2ccc(C(=O)N3CCCC3)cc2)nc(-c2ccc(Cl)cc2)n1        50

stdin: Tell me measured Percentage inhibition of bronchoconstriction for Cc1cc(Nc2ccccc2C(=O)OCC(O)CO)nc(-c2cccc(C(F)(F)F)c2)n1 (stereo not shown) please.
stdout: 50

stdin: Tell me measured Percentage inhibition of bronchoconstriction for `Cc1cc(Nc2ccccc2C(N)=O)nc(-c2ccc3c(c2)OCO3)n1` please.
stdout: 65

stdin: Tell me measured Percentage inhibition of bronchoconstriction for `Cc1cc(Nc2ccc(C(N)=O)cc2)nc(-c2ccc(Cl)cc2)n1` please.
stdout: 80

stdin: Tell me measured Percentage inhibition of bronchoconstriction for `Cc1cc(Nc2ccc(C(=O)N3CCCCC3)cc2)nc(-c2ccc(Cl)cc2)n1` please.
stdout: 50

stdin: Tell me measured Percentage inhibition of bronchoconstriction for `Cc1cc(Nc2ccc(C(N)=O)cc2)nc(-c2ccc3c(c2)OCO3)n1` please.
stdout: 50

stdin: Tell me measured Percentage inhibition of bronchoconstriction for Cc1cc(Nc2ccccc2C(=O)OCC(O)CO)nc(-c2cccc(F)c2)n1 (stereo not shown) please.
stdout: 100

* * *

Assay: Lethal doses / percentage mortality
Assay type: in vivo
Settings: in vivo; mouse, 2 2500 mg/kg/PO
PARAMETER: mortality

stdin: Tell me measured mortality for `Cc1cc(Nc2ccc(OCCN(C)C)cc2)nc(-c2cccc(Cl)c2)n1` please.
stdout: ~50%

* * *

Assay: Lethal doses / percentage mortality
Assay type: in vivo
Settings: in vivo; mouse, 2 800 mg/kg/PO
PARAMETER: mortality

stdin: Tell me measured mortality for `Cc1cc(Nc2ccc(OCCN3CCOCC3)cc2)nc(-c2ccccc2)n1` please.
stdout: ~50%

* * *

Assay: Lethal doses / percentage mortality
Type: in vivo
Details: in vivo; mouse, 1 2500 mg/kg/PO
PARAMETER: mortality

stdin: Tell me measured mortality for Cc1cc(Nc2ccc(OCCN3CCCC3)cc2)nc(-c2ccccc2)n1 [730 218] please.
stdout: ~50%

* * *

Catalogue of molecules with associated DE 50 (second column; DL 50)
System: mouse
Test: Lethal doses / percentage mortality
Type: in vivo
Settings: Table IX

// solved cases for DE 50 (second column; DL 50) follow
> print(dat)
                                   molecule                     parameter        measured
1  O=C(OCC(O)CO)c1ccccc1Nc1ccnc2cc(Cl)ccc12 (centres unmarked)  DE 50 (second column; DL 50)  1 900 mg/kg/PO
2  Cc1cc(Nc2ccc(OCCN(C)C)cc2)nc(-c2cccc(Cl)c2)n1  DE 50 (second column; DL 50)  2 500 mg/kg/PO
3  Cc1cc(Nc2ccc(OCCN3CCCC3)cc2)nc(-c2ccccc2)n1  DE 50 (second column; DL 50)  1 500 mg/kg/PO
4  Cc1c(N(C)C)c(=O)n(-c2ccccc2)n1C [amidopyrine, reference compound]  DE 50 (second column; DL 50)  1 050 mg/kg/PO

Continue with the next molecule.
stdin: Tell me measured DE 50 (second column; DL 50) for `Cc1cc(Nc2ccc(OCCN3CCOCC3)cc2)nc(-c2ccccc2)n1` please.
stdout: 2 800 mg/kg/PO
